These entries and their values trace back to paper PMC6479694.

Catalogue of ΔH° readings, one per entry.
- system: DHFR from E. coli (Escherichia coli, UniProt P0ABQ4)
- Construct: made in house
- protocol-details: Fluorimetric binding assay, quenching of DHFR tryptophan emission (λexc = 280 nm)
- assay-setup: van't Hoff equation from Kd at 25, 10 and −4 °C
- Protocol: The Hepes/methanol solutions of the gold(I) compounds were used for the fluorimetric assays (see materials and methods section) regarding DHFR from E. coli. The emission’s maximum of DHFR was detected at 344 nm upon excitation at 280 nm; by adding additional amounts of the gold complex in Hepes/methanol solutions (ranging among 4 ÷ 50 µM), the quenching of this emission intensity was observed. In Figure 3, spectra showing the effect of ^4L3AuCl on DHFR emission are reported. […]
All answers are understood in kcal/mol, so give the number only.

Please review the entries below; each comes with its answer.
compound	result-value
O=C(O)c1ccc(P(c2ccccc2)c2ccccc2)cc1.O=C(O)c1ccc(P(c2ccccc2)c2ccccc2)cc1.O=C(O)c1ccc(P(c2ccccc2)c2ccccc2)cc1.O=S(=O)([O][Au])C(F)(F)F [^4L3AuTfl]	-5.32
O=C(O)c1ccc(P(c2ccccc2)c2ccccc2)cc1.O=C(O)c1ccc(P(c2ccccc2)c2ccccc2)cc1.[Cl][Au] [^4L2AuCl, (4COOHPh-Ph2P)2AuCl]	-2.02
O=C(O)c1ccccc1P(c1ccccc1)c1ccccc1.O=C(O)c1ccccc1P(c1ccccc1)c1ccccc1.O=C(O)c1ccccc1P(c1ccccc1)c1ccccc1.[Cl][Au] [^2L3AuCl]	-3.94

Report ΔH° for O=C(O)c1ccc(P(c2ccccc2)c2ccccc2)cc1.O=C(O)c1ccc(P(c2ccccc2)c2ccccc2)cc1.O=C(O)c1ccc(P(c2ccccc2)c2ccccc2)cc1.[Cl][Au] [^4L3AuCl] tested on DHFR from E. coli (Escherichia coli, UniProt P0ABQ4).
-5.04

---

- system: DHFR from E. coli (Escherichia coli)
- Construct: made in house
- protocol-details: Fluorimetric binding assay, quenching of DHFR tryptophan emission (λexc = 280 nm)
- assay-setup: 25 °C, without NADPH, Hepes/methanol; read-out: Kd ± s.d., T = 25 °C
measurement-kind: Kd

>>> df
                                   compound  measurement_kind  result_value
0  COC(=O)c1ccc(P(c2ccccc2)c2ccccc2)cc1.COC(=O)c1ccc(P(c2ccccc2)c2ccccc2)cc1.COC(=O)c1ccc(P(c2ccccc2)c2ccccc2)cc1.[Cl][Au]                Kd       13.4 µM
1  O=C(O)c1ccccc1 [Benzoic acid, reference compound]                Kd      ~4000 µM
2  O=C(O)c1ccccc1P(c1ccccc1)c1ccccc1.O=C(O)c1ccccc1P(c1ccccc1)c1ccccc1.O=C(O)c1ccccc1P(c1ccccc1)c1ccccc1.[Cl][Au]                Kd       10.5 µM

Look up Kd for this compound: `[Cl][Au]([PH](c1ccccc1)(c1ccccc1)c1ccccc1)[PH](c1ccccc1)(c1ccccc1)c1ccccc1`
5.99 µM

---

- system: DHFR from E. coli (Escherichia coli, UniProt P0ABQ4)
- Construct: made in house
- protocol-details: Fluorimetric binding assay, quenching of DHFR tryptophan emission (λexc = 280 nm)
- assay-setup: conditions not stated in the conclusions; read-out: thermodynamic constant for the dissociation of the adduct [DHFR:(PPh3)2AuCl]
measurement-kind: Kd

Which measured Kd value corresponds to `[Cl][Au]([PH](c1ccccc1)(c1ccccc1)c1ccccc1)[PH](c1ccccc1)(c1ccccc1)c1ccccc1` ?
~2000 nM

---

- system: DHFR from E. coli (Escherichia coli)
- Construct: made in house
- protocol-details: Fluorimetric binding assay, quenching of DHFR tryptophan emission (λexc = 280 nm)
- assay-setup: −4 °C, without NADPH; read-out: Kd ± s.d. (−4 °C) (converted)
measurement-kind: log10 of Kd (log10 of the value in µM)
On a log10 scale: recorded Kd, unit µM.

// known answers, use as guide
compound	result-value
O=C(O)c1ccccc1P(c1ccccc1)c1ccccc1.O=C(O)c1ccccc1P(c1ccccc1)c1ccccc1.O=C(O)c1ccccc1P(c1ccccc1)c1ccccc1.[Cl][Au] [^2L3AuCl]	0.71
O=C(O)c1ccc(P(c2ccccc2)c2ccccc2)cc1.O=C(O)c1ccc(P(c2ccccc2)c2ccccc2)cc1.[Cl][Au] [^4L2AuCl, (4COOHPh-Ph2P)2AuCl]	0.49
COC(=O)c1ccc(P(c2ccccc2)c2ccccc2)cc1.COC(=O)c1ccc(P(c2ccccc2)c2ccccc2)cc1.COC(=O)c1ccc(P(c2ccccc2)c2ccccc2)cc1.[Cl][Au] [^4MeL3AuCl]	1.33
O=C(O)c1ccc(P(c2ccccc2)c2ccccc2)cc1.O=C(O)c1ccc(P(c2ccccc2)c2ccccc2)cc1.O=C(O)c1ccc(P(c2ccccc2)c2ccccc2)cc1.O=S(=O)([O][Au])C(F)(F)F [^4L3AuTfl]	0.91
[Cl][Au]([PH](c1ccccc1)(c1ccccc1)c1ccccc1)[PH](c1ccccc1)(c1ccccc1)c1ccccc1 [L2AuCl, (PPh3)2AuCl]	0.58

Item O=C(O)c1ccc(P(c2ccccc2)c2ccccc2)cc1.O=C(O)c1ccc(P(c2ccccc2)c2ccccc2)cc1.O=C(O)c1ccc(P(c2ccccc2)c2ccccc2)cc1.[Cl][Au] [^4L3AuCl] has what recorded log10 of Kd?
0.30

---

- system: DHFR from E. coli (Escherichia coli)
- Construct: made in house
- protocol-details: Inhibition of DHFR-catalysed reduction of H2F to H4F, spectrophotometric at 340 nm, Dixon plot
- Type: biochemical
- assay-setup: pH 7.3, 30 °C, saturating NADPH, H2F 1.5-10 µM, Hepes/methanol
Quick reference for pKi among some compounds
Value format note: pKi is -log10 of concentration (mol/L); just state the number.

Can you look up the measured pKi of `COC(=O)c1ccc(P(c2ccccc2)c2ccccc2)cc1.COC(=O)c1ccc(P(c2ccccc2)c2ccccc2)cc1.COC(=O)c1ccc(P(c2ccccc2)c2ccccc2)cc1.[Cl][Au]` for me?
4.90

Recorded pKi for `[Cl][Au]([PH](c1ccccc1)(c1ccccc1)c1ccccc1)[PH](c1ccccc1)(c1ccccc1)c1ccccc1` , please?
6.28

// returns reported pKi for input `O=C(O)c1ccc(P(c2ccccc2)c2ccccc2)cc1.O=C(O)c1ccc(P(c2ccccc2)c2ccccc2)cc1.O=C(O)c1ccc(P(c2ccccc2)c2ccccc2)cc1.[Cl][Au]`
5.34

I'd like to know its pKi. The compound in question is `O=C(O)c1ccc(P(c2ccccc2)c2ccccc2)cc1.O=C(O)c1ccc(P(c2ccccc2)c2ccccc2)cc1.O=C(O)c1ccc(P(c2ccccc2)c2ccccc2)cc1.O=S(=O)([O][Au])C(F)(F)F`
5.20

Report pKi for `O=C(O)c1ccccc1P(c1ccccc1)c1ccccc1.O=C(O)c1ccccc1P(c1ccccc1)c1ccccc1.O=C(O)c1ccccc1P(c1ccccc1)c1ccccc1.[Cl][Au]` please.
4.67

---

- system: DHFR/NADPH (Escherichia coli)
- protocol-details: Fluorimetric binding assay on DHFR in presence of saturating NADPH
- assay-setup: 25 °C, saturating NADPH (50 µM); read-out: Kd ± s.d. (25 °C) in presence of saturating NADPH
measurement-kind: pKd
API: returns pKd as number; meaning -log10 of concentration in mol/L.

Please review the entries below; each comes with its answer.
compound	measurement-kind	result-value
O=C(O)c1ccccc1P(c1ccccc1)c1ccccc1.O=C(O)c1ccccc1P(c1ccccc1)c1ccccc1.O=C(O)c1ccccc1P(c1ccccc1)c1ccccc1.[Cl][Au] [^2L3AuCl]	pKd	5.14
[Cl][Au]([PH](c1ccccc1)(c1ccccc1)c1ccccc1)[PH](c1ccccc1)(c1ccccc1)c1ccccc1 [L2AuCl, (PPh3)2AuCl]	pKd	5.65

Query compound follows.
Consider the compound O=C(O)c1ccccc1P(c1ccccc1)c1ccccc1.O=C(O)c1ccccc1P(c1ccccc1)c1ccccc1.[Cl][Au] [^2L2AuCl, (2COOHPh-Ph2P)2AuCl] and give its measured pKd.
5.33

---

- system: DHFR from E. coli (Escherichia coli)
- Construct: made in house
- protocol-details: Fluorimetric binding assay, quenching of DHFR tryptophan emission (λexc = 280 nm)
- assay-setup: 25 °C, without NADPH, Hepes/methanol; read-out: Kd ± s.d., T = 25 °C
Please respond with Condition met when measured Kd is strictly beneath 4 µM, and with Condition not met in all other cases.

As a guide, the following entries are already answered.
compound	class-name
O=C(O)c1ccc(P(c2ccccc2)c2ccccc2)cc1.O=C(O)c1ccc(P(c2ccccc2)c2ccccc2)cc1.O=C(O)c1ccc(P(c2ccccc2)c2ccccc2)cc1.O=S(=O)([O][Au])C(F)(F)F	Condition not met
O=C(O)c1ccc(P(c2ccccc2)c2ccccc2)cc1.O=C(O)c1ccc(P(c2ccccc2)c2ccccc2)cc1.[Cl][Au]	Condition not met
O=C(O)c1ccc(P(c2ccccc2)c2ccccc2)cc1.O=C(O)c1ccc(P(c2ccccc2)c2ccccc2)cc1.O=C(O)c1ccc(P(c2ccccc2)c2ccccc2)cc1.[Cl][Au]	Condition met
O=C(O)c1ccccc1P(c1ccccc1)c1ccccc1.O=C(O)c1ccccc1P(c1ccccc1)c1ccccc1.[Cl][Au]	Condition not met

--- query ---
is_below(Kd, 4 µM) for O=C(O)c1ccc(P(c2ccccc2)c2ccccc2)cc1 [^4L, 4-(diphenylphosphino)benzoic acid, reference compound] ?
Condition not met
